# test-target: TGF-beta-1 (TGF-β1 homodimer) (Homo sapiens?) (UniProt P01137)
# Sequence (P01137 279-390): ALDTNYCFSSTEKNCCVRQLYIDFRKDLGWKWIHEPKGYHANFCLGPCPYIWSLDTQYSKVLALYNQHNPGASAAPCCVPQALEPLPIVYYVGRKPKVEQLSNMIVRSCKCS
# method: EMSA
# experimental-conditions: PS at dA and dC (5' of A and C; from dATP(αS)/dCTP(αS)); apparent; naive library control; room temp 30 min
measurement-type: Kd (µM)
Numeric answer only, unit µM assumed.

[ask] What does the record list as Kd for CAGTCCGGATGCTCTAGAGTGACNNNNNNNNNNNNNNNNNNNNNNNNNNNNNNCGAATCTCGTGAAGCCGAGCG [initial 74-mer N30 thiophosphate ssDNA library] ?
[reply] 11
